# System: SN12C
# Assay Comment: NCI tumour cell line growth inhibition, 48 h
Calls of active or inactive are those of the source. Rule as the data show it: active = GI50 up to about 1.1 µM and inactive = higher.
Readout: GI50

// below: answered compounds
COc1nc(N=P(c2ccccc2)(c2ccccc2)c2ccccc2)cc(=O)[nH]1 | > 100 µM (inactive)
CCOC(=O)c1nc2ccc(Cl)cc2c2c1CCO2 | 82 µM (inactive)
COc1ccc(C(c2ccc(C(C)C)cc(=O)c2O)c2c(O)cc3oc(-c4ccccc4)cc(=O)c3c2O)cc1 (stereo unspecified) | 16.5 µM (inactive)

The value of GI50 recorded for CC(=O)N1C2=CCCC2(C)c2ccccc21 (stereo unspecified) when tested on SN12C reads 70.5 µM (inactive)

The value of GI50 recorded for CC1CCC(=O)C(C(O)CC2CC(=O)N(c3ccccc3)C(=O)C2)C1 (stereo unspecified) when tested on SN12C reads > 100 µM (inactive)

The value of GI50 recorded for `Nc1ccc(-c2nn3c(COc4ccc(Cl)cc4)nnc3s2)cc1` when tested on SN12C reads > 100 µM (inactive)

====

Examples of compounds with documented GI50 follow.
# Test system: SNB-19
# Assay Comment: NCI tumour cell line growth inhibition, 48 h
Active and inactive are the calls of the source. Rule as the data show it: active = GI50 up to about 1.1 µM and inactive = higher.

// below: answered compounds
Cc1cc(NS(=O)(=O)c2ccc(Nc3c4ccccc4nc4c(C(=O)NCCN(C)C)cccc34)cc2)no1 | 1.72 µM (inactive)
O=C1c2ccccc2C(=O)N1CCN(CCN1C(=O)c2ccccc2C1=O)Cn1cccn1 | > 100 µM (inactive)
Cc1cc(N(CCC#N)CCC#N)ccc1/N=N/c1cc(Cl)ccc1Cl | 17.5 µM (inactive)
CC(=O)N1C2=CCCC2(C)c2ccccc21 (stereo not given) | > 100 µM (inactive)

Here is another compound to look at.
Measured GI50 of CC#CCCCC1(C)CCNC1=S (stereo not given) : > 10 µM (inactive)

====

# Test system: KM12
# Assay Comment: NCI tumour cell line growth inhibition, 48 h
Activity calls are given as the source filed them. No stated cut-off is given here; in the data, active = GI50 up to about 1.1 µM and inactive = higher.
Examples of compounds with documented GI50 follow.

// below: answered compounds
O=C1C(=O)C2(CC1S(=O)(=O)c1ccccc1)c1ccccc1-c1ccccc12 (centres undefined) | 19.2 µM (inactive)
Cc1ccc2oc(=O)c(-c3ccccc3)nc2c1 | 19.6 µM (inactive)
CCn1c(SCC(=O)N/N=C/c2ccccc2)nc2ccccc2c1=O | 3.64 µM (inactive)

Here is another compound to look at.
Measured GI50 of `CCOC(=O)c1nc2ccc(Cl)cc2c2c1CCO2` : > 100 µM (inactive)

====

# Test system: LOX IMVI
# Assay Comment: NCI tumour cell line growth inhibition, 48 h
Activity calls are given as the source filed them. Rule as the data show it: active = GI50 up to about 1.1 µM and inactive = higher.
Choose the fitting class; nothing outside true (active), false (inactive) is accepted.

Reference set, count: 5
O=C1c2ccccc2C(=O)N1CCN(CCN1C(=O)c2ccccc2C1=O)Cn1cccn1 | false
CC(=O)C(=[N+]=[N-])C(=O)OCCOC(=O)C(=[N+]=[N-])C(C)=O | true
COC(=O)/C=C1/OC(c2ccccc2)=CC1=O | false
O=C(CCCCCCCCC(=O)N1C(=O)CC(=O)N(c2ccc(Cl)cc2)C1=S)N1C(=O)CC(=O)N(c2ccc(Cl)cc2)C1=S | false
C=C(Br)CN(CC(=C)Br)C(C)=O | false

State the result this test recorded for `O=C(O)c1cc(/N=N/c2ccc([N+](=O)[O-])cc2)ccc1O` .
false

State the result this test recorded for `COc1ccc(-c2oc3cc(-c4cc5oc(-c6ccc(OC)cc6)c(-c6ccc(OC)cc6)c5cc4OC)c(OC)cc3c2-c2ccc(OC)cc2)cc1` .
false

State the result this test recorded for `COC(=O)C#CC(N)=O` .
false

State the result this test recorded for `CC(=O)n1nnc2ccc([N+](=O)[O-])cc21` .
false

State the result this test recorded for `[N-]=[N+]=C1N=CN=C1c1nc[nH]n1` .
false

State the result this test recorded for `CCOC(=N)n1c(=O)n(C2=NCCN2)c2ccccc21` .
false

====

# Test system: SK-OV-3
# Assay Comment: NCI tumour cell line growth inhibition, 48 h
Activity calls are given as the source filed them. No stated cut-off is given here; in the data, active = GI50 up to about 1.1 µM and inactive = higher.
Choose the fitting class; nothing outside active, inactive is accepted.

Reference set, count: 2
COc1cc(/C=C2/C(=O)NC(Cc3cc(OC)c(OC)c(C)c3OC)C(=O)N2Cc2ccccc2)c(OC)c(C)c1OC (stereo unspecified) | inactive
CC1C=C[C@H](Sc2ccccc2)CC[C@@]1(C)O (stereo partly specified) | inactive

State the result this test recorded for `CCC1(CC)C(=O)N(C(=O)c2ccc(Cl)cc2)N(C(=O)c2ccccc2Cl)C1=O` .
inactive

State the result this test recorded for `COc1ccc(CCn2ccc(C)n2)c(OC)c1` .
inactive

State the result this test recorded for CC(C)(O)/C=C/C(=O)[C@](C)(O)[C@H]1[C@H](O)C[C@@]2(C)[C@@H]3CC=C4[C@@H](C[C@H](O)C(=O)C4(C)C)[C@]3(C)C(=O)C[C@]12C [CUCURBITACIN D] .
active

====

# Tested on: CAKI-1
# Assay Comment: NCI tumour cell line growth inhibition, 48 h
Calls of active or inactive are those of the source. Cut-off read from the data, not from the text of the source: active = GI50 up to about 1.1 µM and inactive = higher.
Choose the fitting class; nothing outside active, inactive is accepted.

Reference set, count: 2
C/C(CC(O)(C(F)(F)F)C(F)(F)F)=N/Nc1ccc([N+](=O)[O-])cc1[N+](=O)[O-] | inactive
CC(=O)OCC1OC(Nc2ccc3nc(C)n(-c4ccccc4)c(=O)c3c2)C(OC(C)=O)C(OC(C)=O)C1OC(C)=O (stereo unspecified) | inactive

State the result this test recorded for `N#CC(C#N)=C1C(C#N)=C(N)NC12OCCO2` .
inactive

====

# System: MCF7
# Assay Comment: NCI tumour cell line growth inhibition, 48 h
Calls of active or inactive are those of the source. Cut-off read from the data, not from the text of the source: active = GI50 up to about 1.1 µM and inactive = higher.
Examples of molecules with documented GI50 follow.

// below: answered molecules
COc1ccc(CNc2nc3cc(C(F)(F)F)ccc3nc2C(=O)O)cc1 | 25 µM (inactive)
COc1ccc2nc3c(C(=O)NCCN(C)C)cccc3cc2c1 | 1.35 µM (inactive)

Measured GI50 of `N#Cc1c(-c2ccccc2)c2c([nH]c1=O)-c1cc([N+](=O)[O-])ccc1CCC2` : 27.7 µM (inactive)

Measured GI50 of CC(C)=CCC/C(C)=C/CC/C(C)=C/CC(CO)N(C)CC/C=C(\C)CCC=C(C)C (stereo unspecified) : 2.11 µM (inactive)

Measured GI50 of `COc1cccc(CCn2c(N)c(C#N)c3ccc([N+](=O)[O-])cc3c2=O)c1` : > 31.6 µM (inactive)

Measured GI50 of `COc1nc(N)c(N=O)c(OCc2ccccc2)n1` : 5.04 µM (inactive)

====

# System: NCI-H460
# Assay Comment: NCI tumour cell line growth inhibition, 48 h
Calls of active or inactive are those of the source. Cut-off read from the data, not from the text of the source: active = GI50 up to about 1.1 µM and inactive = higher.
Choose the fitting class; nothing outside 1 = active, 0 = inactive is accepted.

Cc1nc2ccccc2cc1C[N+]12CN3CN(CN(C3)C1)C2 | 0
CC#CCCCC1(C)CCNC1=S (centres undefined) | 0
Nc1cc(O)nc(SC2=NC(N)CC(O)C2)n1 (centres undefined) | 0

Now look at this entry.
State the result this test recorded for `CCCC(=O)Oc1c2ccsc2c(OC(=O)CCC)c2ccsc12` .
1

====

Examples of compounds with documented GI50 follow.
# System: CCRF-CEM
# Assay Comment: NCI tumour cell line growth inhibition, 48 h
Active and inactive are the calls of the source. No stated cut-off is given here; in the data, active = GI50 up to about 1.1 µM and inactive = higher.

// below: answered compounds
CC#CCCCC1(C)CCNC1=S (stereo not drawn) | > 10 µM (inactive)
CCOC(=O)c1nc2ccc(Cl)cc2c2c1CCO2 | 79.4 µM (inactive)
CCN(N=O)C1C2(CCCC2)NC(=O)C12CCCC2 (stereo not drawn) | > 100 µM (inactive)
COC(=O)C1(F)C(=O)NC(=O)NC1O (stereo not drawn) | > 89.1 µM (inactive)

Here is another compound to look at.
Measured GI50 of CSc1nc2c(c(=O)n1C)N=C(c1ccc(Cl)cc1)CC(c1ccccc1)N2 (stereo not drawn) : 26 µM (inactive)

====

Examples of compounds with documented GI50 follow.
# Test system: HOP-62
# Assay Comment: NCI tumour cell line growth inhibition, 48 h
Active and inactive are the calls of the source. Cut-off read from the data, not from the text of the source: active = GI50 up to about 1.1 µM and inactive = higher.

// below: answered compounds
O=C(O)CNC(=O)c1cccc2c(=O)c3ccccc3[nH]c12 | > 100 µM (inactive)
COc1cc(/C=C\c2cccnc2)cc(OC)c1OC | 37.8 µM (inactive)
CCCN(CCC)C(=S)N/N=C(/C)c1ccccc1O | 4.25 µM (inactive)
Cc1c(S(=O)(=O)/N=C(\NN)Nc2ccc(Cl)cc2)sc2ccc(Cl)cc12 | 18.7 µM (inactive)
CC(C)C1CCC/C=C/C=C/C=C/C=C/C(OC2OC(C)C(O)C(N)C2O)CC2OC(O)(CC(O)CC(O)C(O)CCC(=O)O1)CC(O)C2C(=O)O (configuration not stated) | > 52.5 µM (inactive)
NCCCCNCCCNC(=O)c1nc(-c2nc(CCN)sc2Cl)sc1Cl | 59.7 µM (inactive)

Here is another compound to look at.
Measured GI50 of `c1cc2c(ncc3cscc32)s1` : > 100 µM (inactive)

Where do the numbers come from? From ChEMBL document CHEMBL1201862.
